assay: Cytotoxicity against MDR HCT15 cells; format: cell-based; conditions: human, MDR HCT-15 cells
Please note: GI50 exactly at 0.05 µM is 0. Only values below 0.05 µM get 1.

# example entries with known answers
COc1ccc(-n2ccnc2-c2cc(OC)c(OC)c(OC)c2)cc1    0
COc1ccc(/C=C\c2cc(OC)c(OC)c(OC)c2)cc1O [COMBRETASTATIN A4]    1
COc1cc(-c2nccn2-c2ccc3ccccc3c2)cc(OC)c1OC    1
COc1ccc(-c2nccn2-c2ccc(OC)cc2)cc1    0

Read the next record carefully.
Determine whether this compound shows GI50 lower than 0.05 µM (ties excluded): "COc1cc(-n2cncc2-c2ccc3ccccc3c2)cc(OC)c1OC" 1
